Assay: Pharmacokinetic study of the inhibitors in mice blood plasma (PO and IV)
Format: in vivo
Conditions: mouse, plasma, iv, 30 mg/kg, IV 30 mg/kg, 4 h, n=3 (outliers excluded), read-out: Concentration in Plasma, Mean
The following compounds are listed with their measured concentration at 4 h values.
Answer with the value and then the unit.

mol=COc1cccc(CNc2ccc(S(=O)(=O)Nc3cccc(Cl)c3)cc2)c1O measurement_label="concentration at 4 h" observed_result="29.2 ng/mL"

The record that follows has no concentration at 4 h shown yet.
IN: Give a short answer stating reported concentration at 4 h for COc1cccc(CNc2ccc(S(=O)(=O)Nc3cccc(C(F)(F)F)c3)cc2)c1O .
OUT: 112 ng/mL

---

Assay: Pharmacokinetic study of the inhibitors in mice blood plasma (PO and IV)
Type: in vivo
Details: mouse, plasma, iv, 30 mg/kg, IV 30 mg/kg, 2 h, read-out: Concentration in Plasma, Mouse 3
MEASUREMENT LABEL: concentration at 2 h (ng/mL)
State just the number; it will be interpreted in ng/mL.

Use these answered entries as a reference point.
mol=COc1cccc(CNc2ccc(S(=O)(=O)Nc3cccc(C(F)(F)F)c3)cc2)c1O measurement_label="concentration at 2 h" observed_result=118
mol=COc1cccc(CNc2ccc(S(=O)(=O)Nc3cccc(C4(C(F)(F)F)CC4)c3)cc2)c1O measurement_label="concentration at 2 h" observed_result=71

IN: State its concentration at 2 h for this molecule: COc1cccc(CNc2ccc(S(=O)(=O)Nc3cccc(Cl)c3)cc2)c1O
OUT: 38.8

---

Assay: Pharmacokinetic study of the inhibitors in mice blood plasma (PO and IV)
Assay type: in vivo
Conditions: mouse, plasma, po, 30 mg/kg, PO 30 mg/kg, 2 h, n=3 (outliers excluded), read-out: Concentration in Plasma, Mean
Known concentration at 2 h of a selection of molecules
Reply with the number and its unit after it.

Illustrative cases are given below, each with its answer.
mol=COc1cccc(CNc2ccc(S(=O)(=O)Nc3cccc(Cl)c3)cc2)c1O measurement_label="concentration at 2 h" observed_result="40.4 ng/mL"
mol=COc1cccc(CNc2ccc(S(=O)(=O)Nc3cccc(C4(C(F)(F)F)CC4)c3)cc2)c1O measurement_label="concentration at 2 h" observed_result="5260 ng/mL"

IN: Please give measured concentration at 2 h of the following entry: COc1cccc(CNc2ccc(S(=O)(=O)Nc3cccc(C(F)(F)F)c3)cc2)c1O
OUT: 145 ng/mL

---

Documented concentration at 7 h across a set of molecules
Assay: Pharmacokinetic study of the inhibitors in mice blood plasma (PO and IV)
Format: in vivo
Settings: mouse, plasma, po, 30 mg/kg, PO 30 mg/kg, 7 h, read-out: Concentration in Plasma, Mouse 2
Give the number; ng/mL is assumed, so skip it.

mol=COc1cccc(CNc2ccc(S(=O)(=O)Nc3cccc(C4(C(F)(F)F)CC4)c3)cc2)c1O unit_descriptor=ng/mL observed_result=22.9
mol=COc1cccc(CNc2ccc(S(=O)(=O)Nc3cccc(C(F)(F)F)c3)cc2)c1O unit_descriptor=ng/mL observed_result=76.8

Pending molecule:
IN: For the molecule COc1cccc(CNc2ccc(S(=O)(=O)Nc3cccc(Cl)c3)cc2)c1O , give its reported concentration at 7 h.
OUT: 24.1

---

Assay: Pharmacokinetic study of the inhibitors in mice blood plasma (PO and IV)
Assay type: in vivo
Details: mouse, plasma, iv, 30 mg/kg, IV 30 mg/kg, 7 h, read-out: Concentration in Plasma, Mouse 3
Recorded measurements of concentration at 7 h, one per entry
Answer in ng/mL, number only, no unit symbol.

Below: 2 molecules and their reported concentration at 7 h.
molecule="COc1cccc(CNc2ccc(S(=O)(=O)Nc3cccc(Cl)c3)cc2)c1O [Compound A1]" measurement_label="concentration at 7 h" observed_result=8.3
molecule="COc1cccc(CNc2ccc(S(=O)(=O)Nc3cccc(C4(C(F)(F)F)CC4)c3)cc2)c1O [Compound A4]" measurement_label="concentration at 7 h" observed_result=0.8

Pending molecule:
IN: Please give the documented concentration at 7 h of COc1cccc(CNc2ccc(S(=O)(=O)Nc3cccc(C(F)(F)F)c3)cc2)c1O [Compound A2]
OUT: 27.4

---

Assay: Pharmacokinetic study of the inhibitors in mice blood plasma (PO and IV)
Format: in vivo
Conditions: mouse, plasma, iv, 30 mg/kg, IV 30 mg/kg, 7 h, read-out: Concentration in Plasma, Mouse 1
MEASUREMENT LABEL: concentration at 7 h (ng/mL)
Report as a plain number; the unit ng/mL is understood.

Illustrative cases are given below, each with its answer.
compound="COc1cccc(CNc2ccc(S(=O)(=O)Nc3cccc(C4(C(F)(F)F)CC4)c3)cc2)c1O [Compound A4]" measurement_label="concentration at 7 h" observed_result=24.1
compound="COc1cccc(CNc2ccc(S(=O)(=O)Nc3cccc(Cl)c3)cc2)c1O [Compound A1]" measurement_label="concentration at 7 h" observed_result=36.5

With those in mind, consider the next compound.
IN: Quick one: give measured concentration at 7 h for COc1cccc(CNc2ccc(S(=O)(=O)Nc3cccc(C(F)(F)F)c3)cc2)c1O [Compound A2]
OUT: 49.3

---

Each entry below lists one item and its recorded concentration at 2 h value.
Experiment: Pharmacokinetic study of the inhibitors in mice blood plasma (PO and IV)
Format: in vivo
Details: mouse, plasma, iv, 30 mg/kg, IV 30 mg/kg, 2 h, read-out: Concentration in Plasma, Mouse 1
Method: Pharmacokinetic Study of the Inhibitors in Mice Blood Plasma The blood plasma concentration of compounds A1, A2, and A4 in mice was determined following per os, oral compound administration (“PO”) and intravenous (“IV”) administration Calibration curve. The concentration range was evaluated from 2.5-5000 ng/ml for compound A2, 1-5000 ng/ml for compound A4, and 5-5000 ng/ml for compound A1. The curve was built with linear regression with weighing (1/X2). […]
Answer format: number, then unit.

compound="COc1cccc(CNc2ccc(S(=O)(=O)Nc3cccc(C4(C(F)(F)F)CC4)c3)cc2)c1O [Compound A4]" measurement_label="concentration at 2 h" observed_result="94.2 ng/mL"
compound="COc1cccc(CNc2ccc(S(=O)(=O)Nc3cccc(Cl)c3)cc2)c1O [Compound A1]" measurement_label="concentration at 2 h" observed_result="69.6 ng/mL"

Next, consider the following compound.
IN: Give the reported concentration at 2 h for this compound. COc1cccc(CNc2ccc(S(=O)(=O)Nc3cccc(C(F)(F)F)c3)cc2)c1O [Compound A2]
OUT: 144 ng/mL

---

Assay: Pharmacokinetic study of the inhibitors in mice blood plasma (PO and IV)
Assay type: in vivo
Conditions: mouse, plasma, po, 30 mg/kg, PO 30 mg/kg, 4 h, read-out: Concentration in Plasma, Mouse 1
MEASUREMENT LABEL: concentration at 4 h

mol=COc1cccc(CNc2ccc(S(=O)(=O)Nc3cccc(C4(C(F)(F)F)CC4)c3)cc2)c1O measurement_label="concentration at 4 h" observed_result="33.4 ng/mL"
mol=COc1cccc(CNc2ccc(S(=O)(=O)Nc3cccc(C(F)(F)F)c3)cc2)c1O measurement_label="concentration at 4 h" observed_result="38.9 ng/mL"

Attention now shifts to the item below.
IN: Complete the entry with concentration at 4 h for COc1cccc(CNc2ccc(S(=O)(=O)Nc3cccc(Cl)c3)cc2)c1O
OUT: 48.9 ng/mL

---

# concentration at 7 h annotations
Experiment: Pharmacokinetic study of the inhibitors in mice blood plasma (PO and IV)
Assay type: in vivo
Conditions: mouse, plasma, po, 30 mg/kg, PO 30 mg/kg, 7 h, read-out: Concentration in Plasma, Mouse 1
Write it as a number; the unit ng/mL goes unstated.

IN: Entry COc1cccc(CNc2ccc(S(=O)(=O)Nc3cccc(Cl)c3)cc2)c1O needs its concentration at 7 h filled in; supply it.
OUT: 12.1

IN: Identify measured concentration at 7 h associated with COc1cccc(CNc2ccc(S(=O)(=O)Nc3cccc(C4(C(F)(F)F)CC4)c3)cc2)c1O
OUT: 33.2

IN: Look up and state reported concentration at 7 h for COc1cccc(CNc2ccc(S(=O)(=O)Nc3cccc(C(F)(F)F)c3)cc2)c1O
OUT: 106

---

Assay: Pharmacokinetic study of the inhibitors in mice blood plasma (PO and IV)
Assay type: in vivo
Conditions: mouse, plasma, po, 30 mg/kg, PO 30 mg/kg, 2 h, read-out: Concentration in Plasma, Mouse 1
MEASUREMENT LABEL: concentration at 2 h
The reply should consist of the numeric value with the unit placed after it.

compound="COc1cccc(CNc2ccc(S(=O)(=O)Nc3cccc(C(F)(F)F)c3)cc2)c1O [Compound A2]" observed_result="59 ng/mL"

Please turn your attention to the following entry.
IN: Indicate the recorded concentration at 2 h value for this compound: COc1cccc(CNc2ccc(S(=O)(=O)Nc3cccc(Cl)c3)cc2)c1O [Compound A1]
OUT: 21 ng/mL

---

Test: Pharmacokinetic study of the inhibitors in mice blood plasma (PO and IV)
Format: in vivo
Settings: mouse, plasma, po, 30 mg/kg, PO 30 mg/kg, 7 h, read-out: Concentration in Plasma, Mouse 3
MEASUREMENT LABEL: concentration at 7 h (ng/mL)
Please reply with the bare figure in ng/mL and do not write the unit itself.

compound="COc1cccc(CNc2ccc(S(=O)(=O)Nc3cccc(Cl)c3)cc2)c1O [Compound A1]" observed_result=9.3

Let us move to another entry and its concentration at 7 h.
IN: Please look at this compound and report its concentration at 7 h: COc1cccc(CNc2ccc(S(=O)(=O)Nc3cccc(C4(C(F)(F)F)CC4)c3)cc2)c1O [Compound A4]
OUT: 30.9
